assay.remarks: in vitro
measurement.context: human, microsomes, Liver microsomes Clint
So I've got a bunch of compounds here, and I need their microsomal CLint at 1 µM values.
// return numeric value only (unit: µL/min/mg, not printed)

IN: Provide measured microsomal CLint at 1 µM value, entry: CCC/C(C)=C/C=C(\C)C(=O)c1c(O)cc([C@H](C)CC/C=C/NC(=O)OC)oc1=O [MYX A (1), myxopyronins A]
OUT: 157

IN: Item COC(=O)N/C=C/CC[C@@H](C)c1cc(O)c(C(=O)/C(C)=C/C=C(\C)CCC(F)(F)F)c(=O)o1 [MYX (8)] : provide microsomal CLint at 1 µM
OUT: 28

----------
I'd be grateful if you could share measured half-life at 1 µM for these entries.
assay.remarks: Metabolic stability in liver microsomes
measurement.context: C57BL/6, mouse
# value in min; strip the unit string

IN: In one line, give reported half-life at 1 µM of the entry CCC/C(C)=C/C=C(\C)C(=O)c1c(O)cc([C@H](C)CC/C=C/NC(=O)OC)oc1=O .
OUT: 19

IN: Give half-life at 1 µM for the following compound: COC(=O)N/C=C/CC[C@@H](C)c1cc(O)c(C(=O)/C(C)=C/C=C(\C)CCC(F)(F)F)c(=O)o1
OUT: 68

----------
assay.remarks: in vitro
measurement.context: C57BL/6, mouse, microsomes
measurement.name: microsomal CLint at 1 µM (µL/min/mg)
API: value field is a number in µL/min/mg; no unit string.

IN: Name the recorded microsomal CLint at 1 µM of the compound listed here: COC(=O)N/C=C/CC[C@@H](C)c1cc(O)c(C(=O)/C(C)=C/C=C(\C)CCC(F)(F)F)c(=O)o1 [MYX (8)]
OUT: 21

IN: Fill in reported microsomal CLint at 1 µM for this entry: CCC/C(C)=C/C=C(\C)C(=O)c1c(O)cc([C@H](C)CC/C=C/NC(=O)OC)oc1=O [MYX A (1), myxopyronins A]
OUT: 76

----------
assay.remarks: in vitro
Assay type: in vitro ADME
measurement.context: human, plasma, pH 7.4
Consider the following molecules; for each one, report its fraction unbound at 10 µM.
Write no unit; give the number alone.

IN: Annotate the molecule COC(=O)N/C=C/CC[C@@H](C)c1cc(O)c(C(=O)/C(C)=C/C=C(\C)CCC(F)(F)F)c(=O)o1 with its measured fraction unbound at 10 µM.
OUT: 0.0162

IN: Please give measured fraction unbound at 10 µM of the following entry: CCC/C(C)=C/C=C(\C)C(=O)c1c(O)cc([C@H](C)CC/C=C/NC(=O)OC)oc1=O
OUT: 0.0107

----------
assay.remarks: in vitro
Assay type: in vitro ADME
measurement.context: mouse, hepatocytes
What half-life at 1 µM was measured for each of the following?

IN: For the compound COC(=O)N/C=C/CC[C@@H](C)c1cc(O)c(C(=O)/C(C)=C/C=C(\C)CCC(F)(F)F)c(=O)o1 [MYX (8)] , give its reported half-life at 1 µM.
OUT: > 240 min

IN: Read off the recorded half-life at 1 µM for CCC/C(C)=C/C=C(\C)C(=O)c1c(O)cc([C@H](C)CC/C=C/NC(=O)OC)oc1=O [MYX A (1), myxopyronins A]
OUT: > 240 min

----------
assay.remarks: Metabolic stability in liver microsomes
measurement.context: Wistar, rat
measurement.name: half-life at 1 µM

IN: Complete the entry with half-life at 1 µM for CCC/C(C)=C/C=C(\C)C(=O)c1c(O)cc([C@H](C)CC/C=C/NC(=O)OC)oc1=O [MYX A (1), myxopyronins A]
OUT: ~2 h

IN: Look up half-life at 1 µM of COC(=O)N/C=C/CC[C@@H](C)c1cc(O)c(C(=O)/C(C)=C/C=C(\C)CCC(F)(F)F)c(=O)o1 [MYX (8)] and report it.
OUT: ~2 h

----------
assay.remarks: in vitro
Assay type: in vitro ADME
measurement.context: mouse, hepatocytes
measurement.name: hepatocyte CLint at 1 µM

IN: Please give the documented hepatocyte CLint at 1 µM of CCC/C(C)=C/C=C(\C)C(=O)c1c(O)cc([C@H](C)CC/C=C/NC(=O)OC)oc1=O
OUT: < 3.8 µL/min/1e6 cells

IN: Give hepatocyte CLint at 1 µM for the following compound: COC(=O)N/C=C/CC[C@@H](C)c1cc(O)c(C(=O)/C(C)=C/C=C(\C)CCC(F)(F)F)c(=O)o1
OUT: < 3.8 µL/min/1e6 cells

----------
assay.remarks: in vitro
Type: in vitro ADME
measurement.context: CD-1, mouse, plasma
Task for the reader: assign each of the following molecules its reported half-life at 1 µM.

IN: Using the record for COC(=O)N/C=C/CC[C@@H](C)c1cc(O)c(C(=O)/C(C)=C/C=C(\C)CCC(F)(F)F)c(=O)o1 [MYX (8)] , state its measured half-life at 1 µM.
OUT: > 4 h

IN: Provide only the value of recorded half-life at 1 µM for CCC/C(C)=C/C=C(\C)C(=O)c1c(O)cc([C@H](C)CC/C=C/NC(=O)OC)oc1=O [MYX A (1), myxopyronins A]
OUT: > 4 h

----------
Exercise: for every item that follows, state its recorded fraction unbound at 10 µM.
assay.remarks: in vitro
Format: in vitro ADME
measurement.context: Wistar, rat, plasma, pH 7.4
I only need the number, thanks.

IN: Return the recorded fraction unbound at 10 µM value; entry: CCC/C(C)=C/C=C(\C)C(=O)c1c(O)cc([C@H](C)CC/C=C/NC(=O)OC)oc1=O [MYX A (1), myxopyronins A]
OUT: 0.0054

IN: Kindly indicate its recorded fraction unbound at 10 µM. Item: COC(=O)N/C=C/CC[C@@H](C)c1cc(O)c(C(=O)/C(C)=C/C=C(\C)CCC(F)(F)F)c(=O)o1 [MYX (8)]
OUT: 0.0049

----------
assay.remarks: Metabolic stability in liver microsomes
measurement.context: human
measurement.name: half-life at 1 µM (min)
Hi! Could you send only the number? It should be in min, unit omitted.

IN: Query half-life at 1 µM for COC(=O)N/C=C/CC[C@@H](C)c1cc(O)c(C(=O)/C(C)=C/C=C(\C)CCC(F)(F)F)c(=O)o1
OUT: 52

IN: Look up and report measured half-life at 1 µM for this entry: CCC/C(C)=C/C=C(\C)C(=O)c1c(O)cc([C@H](C)CC/C=C/NC(=O)OC)oc1=O
OUT: 7.3

----------
assay.remarks: in vitro
Assay type: in vitro ADME
measurement.context: CD-1, mouse, plasma, pH 7.4
Consider the following compounds; for each one, report its fraction unbound at 10 µM.

IN: Determine from records and report fraction unbound at 10 µM for CCC/C(C)=C/C=C(\C)C(=O)c1c(O)cc([C@H](C)CC/C=C/NC(=O)OC)oc1=O
OUT: 0.0026

IN: Return the recorded fraction unbound at 10 µM value; entry: COC(=O)N/C=C/CC[C@@H](C)c1cc(O)c(C(=O)/C(C)=C/C=C(\C)CCC(F)(F)F)c(=O)o1
OUT: 0.0036

----------
assay.remarks: in vitro
Assay type: in vitro ADME
measurement.context: human, plasma
measurement.name: half-life at 1 µM

IN: Provide measured half-life at 1 µM value, entry: CCC/C(C)=C/C=C(\C)C(=O)c1c(O)cc([C@H](C)CC/C=C/NC(=O)OC)oc1=O
OUT: > 4 h

IN: Return half-life at 1 µM (reported value) for this molecule: COC(=O)N/C=C/CC[C@@H](C)c1cc(O)c(C(=O)/C(C)=C/C=C(\C)CCC(F)(F)F)c(=O)o1
OUT: > 4 h
